tested on: UACC-257 melanoma; assay: NCI-60 one-dose screen, 48 h; conditions: 10 µM
About 83,000 compounds went through this panel and 20% of them were active in at least one assay; those are over-represented in the sample as a whole. Calls of active or inactive are those of the source. How the source made its calls: active means growth percent below 10; inactive means the rest.
Outcome codes: True (active), False (inactive)

| COMPOUND | CATEGORY LABEL |
| --- | --- |
| COc1cc(/C=N/NC(=O)c2ccc3nc(-c4ccc(Cl)cc4)[nH]c3c2)cc(OC)c1OC | True |
| O=c1[nH]c2ccccc2cc1CSc1ccc(Nc2nccc(-c3ccc4c(c3)OCO4)n2)cc1 | False |
| CC[C@@]1(O)C(=O)OCc2c1cc1n(c2=O)Cc2c-1nc1cc(F)c(C)c3c1c2[C@@H](N)CC3 | True |
| O=[N+]([O-])c1ccc(-c2nc(-c3ccccc3)c(-c3ccccc3)n2-c2ccc(S(=O)(=O)Nc3ncccn3)cc2)cc1 | False |
| COc1ccc2[nH]c(O)c(N=NC(=O)COc3ccc(NC(=O)Nc4ccc(Cl)cc4)cc3)c2c1 | False |
| C=C1CCC2C3(C)COC(c4c(F)cccc4F)OC3CCC2(C)C1C/C=C1/C(=O)OCC1O (stereo not drawn) | True |
| COC(=O)C[C@](O)(CCCC(C)(C)O)C(=O)O[C@H]1C(OC)=C[C@@]23CCC(=O)N2CCc2cc4c(cc2[C@@H]13)OCO4 | False |
| C=C1CC[C@H](C(=C)C)[C@H]2C=C(C)C(=O)C3=C(C(=O)[C@@](C)(O)C3)[C@H]12 | True |

----------
system: PC-3 prostate; experiment: NCI-60 one-dose screen, 48 h (100 = growth as untreated, 0 = no growth, -100 = all killed); settings: 10 µM
About 83,000 compounds went through this panel and 20% of them were active in at least one assay; those are over-represented in the sample as a whole.

| COMPOUND | growth (%) |
| --- | --- |
| CS(=O)(=O)Nc1ccc(-c2ccc3c(c2)ncn3-c2ccc(NC(=O)Nc3ccc(Cl)c(C(F)(F)F)c3)cc2)cc1 | -57.5 |
| CO[C@@H]1CSSC1Cn1nc(-c2ccc(Oc3ccccc3)cc2)c2c(N)ncnc21 (some centres undefined) | 43.6 |
| COc1ccccc1NCc1ccc(CO)n1-c1ccc(C)cc1 | 80.2 |
| CCOC(=O)CNC(=O)CN(Cc1ccccc1)C(=O)[C@@]1(C)CCC[C@]2(C)[C@H]3C[C@H]4C(C(C)C)=C[C@]3(CC[C@H]21)[C@@H]1C(=O)OC(=O)[C@@H]14 | 39.2 |
| CN(C)c1nc(NCCNS(=O)(=O)c2ccc(C(=O)/C=C/c3ccccc3)cc2)nc(Nc2ccc(F)cc2)n1 | 16.4 |
| Cc1ccc2nc(COc3ccc(C(=O)NNC(=S)NCCc4ccccc4)cc3)[nH]c2c1 | 81.4 |
| COc1ccc(OC)c(-c2cc(-c3c[nH]c4ccccc34)nc(N)c2C#N)c1 | 13.1 |
| CCCCCc1ccc(S(=O)(=O)Nc2cc(-c3csc(N(C)C(C)=O)n3)ccc2N2CCN(C)CC2)cc1 | 37 |
| COc1ccc2ncc(C#Cc3cncc(C(=O)Nc4ccc(CN5CCN(C)CC5)c(C(F)(F)F)c4)c3)n2n1 | -59.6 |

----------
test system: U251 CNS; assay: NCI-60 one-dose screen, 48 h; details: 10 µM
About 83,000 compounds went through this panel and 20% of them were active in at least one assay; those are over-represented in the sample as a whole. Active and inactive are the calls of the source. Rule for the calls: active = growth percent below 10; inactive = the rest.
Outcome codes: 1 for active, 0 for inactive

| MOLECULE | CATEGORY LABEL |
| --- | --- |
| O=C(CSc1nnc(-c2ccc3nc(-c4ccc(Cl)cc4)[nH]c3c2)o1)Nc1ccc(Br)cc1 | 1 |
| CN1CCN(Cc2ccc(NC(=O)c3cncc(C#Cc4cnc5ccc(N[C@@H]6CCOC6)nn45)c3)cc2C(F)(F)F)CC1 | 1 |
| O=C(CSc1ccc(-c2ccc(Cl)cc2)nn1)Nc1ccc(Cl)c(C(F)(F)F)c1 | 0 |
| CCOc1ccc(/C=N/NC(=O)Cn2nc(Cc3ccccc3)c3onc(C)c3c2=O)cc1 | 1 |
| CCOC(=O)C1=C(N)N(c2ccc(Cl)cc2)C2=C(C(=O)CC(C)(C)C2)C1c1ccc(N2CCOCC2)cc1 (centres undefined) | 0 |
| Cc1cc(C)nc(NS(=O)(=O)c2ccc(N/C(N)=N/c3nccc(-c4ccccc4)n3)cc2)n1 | 0 |
| O=c1oc2ccc(-c3ccc(F)cc3F)cc2c(=O)n1-c1ccc(Cl)c(C(F)(F)F)c1 | 1 |
| Cc1noc2c(Cc3ccccc3)nn(CC(=O)N/N=C/c3ccc(Cl)cc3)c(=O)c12 | 0 |
| CC(C)(C)Nc1nc2cc(Cl)c(Cl)cc2nc1S(C)(=O)=O | 0 |

FYI, the data here is from PubChem BioAssay (NCI).
